Entry source: patent US10233195B2

- Test system: TGF-b induced Endothelin-1 production
- experimental_details: ET-1 assay: inhibitory effect on TGF-b induced endothelin-1 production
- Type: cell-based
- condition: Homo sapiens, Fibroblast; fibroblasts, stimulant (TGFb, serum, LPA etc), ET-1 in media by ELISA, 4-parameter fit
pEC50: −log10 of the molar value.
observed_property: pEC50

Look over these answered cases.
In [3]: df
Out[3]:
                            compound_smiles       reading
0  O=c1ccc(-c2ccc(F)cc2)cn1-c1cccc(C(F)(F)F)c1  3.70 to 4.30
1  O=c1cc(Oc2ccccc2)c(-c2ccc(F)cc2)cn1-c1ccc(OC(F)(F)F)cc1        < 3.70
2  O=c1c2c(c(-c3cn[nH]c3)cn1-c1ccc(OC(F)(F)F)cc1)CCCC2  3.70 to 4.30
3                 O=c1cc2ccccc2cn1-c1ccccc1  3.70 to 4.30

Enquiry: Could you tell me which pEC50 is on file for Cn1cc(-c2cn(-c3ccc(OC(F)(F)F)cc3)c(=O)c3[nH]ccc23)cn1 ?
Return: > 4.30

Enquiry: Could you tell me which pEC50 is on file for O=c1ccc(-c2cccc(Cl)c2)cn1-c1cccc(C(F)(F)F)c1 ?
Return: > 4.30

Enquiry: Could you tell me which pEC50 is on file for CC(C)n1cc(-c2ccc(=O)n(-c3ccccc3)c2)cn1 ?
Return: < 3.70

Enquiry: Could you tell me which pEC50 is on file for Cc1n[nH]c(C)c1-c1ccc(=O)n(-c2ccc(OC(F)(F)F)cc2)c1 ?
Return: 3.70 to 4.30

Enquiry: Could you tell me which pEC50 is on file for CCOc1ccc(-n2cc(-c3ccc(F)cc3)c(Cl)cc2=O)c(C)c1 ?
Return: < 3.70

Enquiry: Could you tell me which pEC50 is on file for COCCOc1ccc(-n2cc(-c3ccccc3)c(C)cc2=O)cc1 ?
Return: > 4.30

Enquiry: Could you tell me which pEC50 is on file for O=c1cc(OC2CCS(=O)(=O)CC2)c(-c2ccc(F)cc2)cn1-c1ccc(OC(F)(F)F)cc1 ?
Return: > 4.30

Enquiry: Could you tell me which pEC50 is on file for Cn1cc(-c2cn(-c3ccc(OC(F)(F)F)cc3)c(=O)cc2Oc2ccccc2)cn1 ?
Return: > 4.30

Enquiry: Could you tell me which pEC50 is on file for CC(C)n1cc(-c2cn(-c3ccc(OC(F)(F)F)cc3)c(=O)c3c2ncn3C)cn1 ?
Return: > 4.30

Enquiry: Could you tell me which pEC50 is on file for CCOc1ccc(-n2cc(-c3c(C)n[nH]c3C)ccc2=O)c(C)c1 ?
Return: 3.70 to 4.30
